Values were extracted from patent US20260209334A1.

# test system: T1, human IL-17A with C-terminal Avi-tag, biotinylated, immobilized on BLI sensors (human, UniProt Q16552 24-155, biotin on the C-terminal Avi-tag (BirA))
# T1 construct: also called biotinylated IL-17A; not shown: C-terminal Avi-tag
# T1 sequence (Q16552 24-155): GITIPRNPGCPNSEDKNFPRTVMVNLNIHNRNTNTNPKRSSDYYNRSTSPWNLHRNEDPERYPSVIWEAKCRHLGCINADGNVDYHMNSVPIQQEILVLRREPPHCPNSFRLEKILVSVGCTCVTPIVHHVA
# measurement notes: BLI, biotinylated IL-17A immobilized on streptavidin sensors, monovalent VHH as analyte (25, 50, 100 nM), mass transport fit
assay readout: Kd (nM)

>  <binder>
Re42B03 (VHH, Class A, first generation) VHH: QVQLVESGGGLVQAGGSLRLSCAASGLTGSSYAMGWFRQAPGKEREFVAAISWISGGTKYTDSVKDRFTMSRDYAKKQVYLEMNSLKPEDTAVYYCNDMPYGLDTRMDEYVYWGQGTQVTVSS

>  <endpoint unit>
nM

>  <recorded measurement>
0.7

$$$$
>  <binder>
Re42H11 (VHH, Class A, first generation; For the crystal it was made with a His14-ScSUMO tag that was cleaved off) VHH: QVQLVESGGGLVQAGGSLRLSCAASGLTASSYAMGWFRQAPGKEREFVAAISWISGGTKYADSVKGRFTMSRDNAKKQVYLEMNSLKPEDTAVYYCNDMPYGLDTRMDEYAYWGQGTQVTVSS

>  <endpoint unit>
nM

>  <recorded measurement>
1

$$$$

P = Bm18B05 (VHH, Class A, first generation) VHH: QVQLVESGGGLVQPGGSLRLSCAVSGRTFSSYAMGWFRRPPGKEREFVAAISWSGGDTKYADFVTDRFTISRDDAKSTVYLQMNSLKPEDTAVYYCNDMPYGLDTRMDEYEYWGQGTQVTVSS
Q = Bm18F11 (VHH, Class A, first generation) VHH: QVQLVESGGDLVQAGGSLRLSCAASGLTGSSYAMGWFRQAPGKEREFVAAISWISGDTKYTDSVKGRFTMSRDNAKKQVYLEMNSLKPEDTAVYYCNDMPYGLDTRMDEYVYWGQGTQVTVSS
Would you kindly point out which of P and Q has the smaller Kd figure? # reply format: chosen label
Q
